These measurements were taken from paper PMC4890880.

# System: Plasmodium berghei (Pb-Luc) exoerythrocytic-stage parasites
# TEST_CONTEXT: second series of columns (replicate); concentration 3.33333; fraction of control
MEASURED_METRIC: normalized signal at concentration 3.33333
Write the number on its own, no unit after it.

The cases that follow already have their normalized signal at concentration 3.33333 on record.
1. C[C@H]1CN([C@@H](C)CO)C(=O)CCCn2cc(nn2)CO[C@H]1CN(C)C(=O)Nc1cccc2ccccc12 [BRD-K54628954-001-01-2]    0.9018
2. C[C@H](CO)N1C[C@H](C)[C@H](CN(C)S(=O)(=O)c2ccc(F)cc2)OCCCC[C@H](C)Oc2ccc(N(C)C)cc2C1=O [BRD-K59130783-001-01-1]    0.946

What measured normalized signal at concentration 3.33333 is associated with C[C@@H]1CN([C@@H](C)CO)C(=O)c2ccccc2-c2ccccc2CO[C@@H]1CN(C)S(=O)(=O)Cc1ccccc1 [BRD-K06421369-001-01-0] on Plasmodium berghei (Pb-Luc) exoerythrocytic-stage parasites?
1.032

Query normalized signal at concentration 3.33333 on Plasmodium berghei (Pb-Luc) exoerythrocytic-stage parasites for COc1ccccc1NC(=O)N1C[C@@H]2N[C@H](C1)C2c1ccc(/C=C/c2ccccc2)cc1 (stereo partly drawn) [BRD-K72765192-019-01-4]
0.8733

What reported normalized signal at concentration 3.33333 corresponds to CC(C)NC(=O)NCC[C@@H]1CC[C@H](NS(=O)(=O)c2ccc(Oc3ccccc3)cc2)[C@@H](CO)O1 [BRD-K66184091-001-01-6] on Plasmodium berghei (Pb-Luc) exoerythrocytic-stage parasites?
0.9837

Given the entry O=C(Nc1ccc2c(c1)[C@@H]1C[C@@H](CC(=O)N3CCc4ccccc4C3)O[C@@H](CO)[C@@H]1O2)c1ccc2c(c1)OCO2 [BRD-K15778794-001-01-7] , what normalized signal at concentration 3.33333 was observed with Plasmodium berghei (Pb-Luc) exoerythrocytic-stage parasites?
0.8183
